# STUDY_TARGET: Neuropilin-1 (Homo sapiens) (UniProt O14786)
# Sequence (O14786 whole entry, looked up): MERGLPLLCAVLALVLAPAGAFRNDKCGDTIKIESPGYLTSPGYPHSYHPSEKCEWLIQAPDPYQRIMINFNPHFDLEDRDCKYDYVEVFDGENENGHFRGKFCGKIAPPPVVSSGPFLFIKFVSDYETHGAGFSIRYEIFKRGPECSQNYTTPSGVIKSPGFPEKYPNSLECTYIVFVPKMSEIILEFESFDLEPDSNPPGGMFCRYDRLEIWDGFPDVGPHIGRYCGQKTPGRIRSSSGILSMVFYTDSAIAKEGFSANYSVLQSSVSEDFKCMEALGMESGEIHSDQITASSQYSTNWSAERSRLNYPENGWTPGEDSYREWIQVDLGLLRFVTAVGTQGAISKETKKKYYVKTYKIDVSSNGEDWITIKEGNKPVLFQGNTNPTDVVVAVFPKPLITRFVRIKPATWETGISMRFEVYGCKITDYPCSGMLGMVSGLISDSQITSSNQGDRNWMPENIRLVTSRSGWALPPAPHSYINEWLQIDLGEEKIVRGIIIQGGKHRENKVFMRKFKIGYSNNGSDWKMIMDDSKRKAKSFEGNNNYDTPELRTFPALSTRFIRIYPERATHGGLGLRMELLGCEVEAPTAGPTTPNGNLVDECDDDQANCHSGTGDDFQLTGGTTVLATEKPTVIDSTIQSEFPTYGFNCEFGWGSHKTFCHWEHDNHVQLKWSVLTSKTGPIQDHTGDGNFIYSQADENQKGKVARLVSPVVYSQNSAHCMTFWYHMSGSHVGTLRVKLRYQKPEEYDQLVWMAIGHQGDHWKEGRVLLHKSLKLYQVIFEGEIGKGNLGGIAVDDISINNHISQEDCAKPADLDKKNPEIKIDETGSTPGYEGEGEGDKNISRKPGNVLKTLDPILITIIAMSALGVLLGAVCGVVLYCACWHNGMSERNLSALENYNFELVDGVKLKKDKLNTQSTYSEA
# PROCEDURE_DETAILS: NRP-1 b1b2 CendR peptide binding inhibitors, dose response, biochemical, FP and AlphaScreen panel (AID 651650)
# MEASUREMENT_CONTEXT: NRP-1 b1b2 / RPARPAR peptide binding, FP or AlphaScreen; AlphaScreen, mean of runs
Active and inactive are the calls of the source.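 The calls were made as follows: active = mean IC50 below 20 µM in each of the two panels, so potent in both; inactive = the rest.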
Labels: y (active), n (inactive)

1. COC(=O)N[C@@H]1C[C@H]2[C@@H]3CC[C@H]4C[C@@H](OC)CC[C@]4(C)[C@H]3CC[C@]12C = n
2. CC(=O)Nc1cc(F)c2c(c1F)Cc1cc(F)ccc1-2 = n
3. COc1cc(C(=O)NCc2ccccc2)cc(Br)c1OC = n
4. CCOc1ccc(S(=O)(=O)N2CCN(C(=O)c3sccc3C)CC2)cc1 = y
5. O=C(NNc1ncnc2c1cnn2-c1ccc(F)cc1)c1ccco1 = n
6. Cc1cc2cc(CNC(=O)c3ccco3)ccc2n1C = n
7. CCC(=O)Nc1cc2c3c(c1)CCC(=O)N3CCC2 = y
8. NC(=S)NNC(=S)Nc1ccccc1 = n
9. Cc1ccc(S(=O)(=O)NCC(=O)N(c2ccccc2)C(C(=O)NCc2ccccc2)c2ccco2)cc1 (stereo unspecified) = n
10. CC(=O)N1CCSc2ccc(S(=O)(=O)Nc3ccc(C)cc3)cc21 = n
11. CC1CCC(NC(=O)CSc2nncn2C)CC1 (stereo unspecified) = n
12. O=C(COc1ccc(Br)cc1CO)Nc1ccc(F)cc1 = n
13. COc1cc(C(=O)Nc2cc3c(cc2N2CCCCC2)n(C)c(=O)n3C)cc(OC)c1OC = n
14. C=CCOc1c(CNc2ncn[nH]2)cccc1OCC = n
15. Cc1ccc(C(=O)N/C(=C\c2sccc2C)C(=O)NCc2ccco2)cc1 = n
16. COc1ccc(C(O)c2nc(-c3ccc4ccccc4c3)cs2)cc1 (stereo unspecified) = n
17. CN(c1ccc(OCC(=O)OCC(=O)Nc2ccc([N+](=O)[O-])cc2)cc1)S(=O)(=O)c1cccs1 = n
18. O=C(CCCNC(=O)/C(=C\c1ccc(F)cc1)NC(=O)c1ccccc1)OCc1ccccc1 = n
19. CCOc1c2ccc(C(=O)NCCc3cccs3)cc2nn1CC = n
20. FC(F)(F)C1CC(c2cccs2)Nc2ncnn21 (stereo unspecified) = n
21. CCOC(=O)C1(Cc2cccc(F)c2)CCN(Cc2ccon2)CC1 = y
22. O=c1[nH]c(Nc2ccccn2)cc2ccccc12 = y
23. O=C(COc1cc(Cl)c(Cl)cc1Cl)Nc1ccc([N+](=O)[O-])cc1Cl = n
24. CCCNC(=O)[C@H]1N2C(=O)c3c(ccc(OC)c3OC)C2SC1(C)C (stereo partly specified) = n
25. C=CCNC(=O)c1onc(CSc2ccc(F)c(F)c2)c1C(=O)NCC=C = n
26. C=CCN(CC=C)C(=O)C1CC(=O)N(c2ccc(Br)cc2)C1 (stereo unspecified) = n

----------
# STUDY_TARGET: Neuropilin-1 (Homo sapiens)
# PROCEDURE_DETAILS: NRP-1 b1b2 CendR peptide binding inhibitors, dose response, biochemical, FP and AlphaScreen panel (AID 651650)
# MEASUREMENT_CONTEXT: NRP-1 b1b2 / RPARPAR peptide binding, FP or AlphaScreen; AlphaScreen, run 1; individual panel run IC50
MEASURE: IC50

1) Cc1cnc(C(=O)OCC(=O)Nc2sc3c(c2C#N)CCC3)cn1 = > 100 µM
2) Cc1csc(NC(C)c2nc3cc(C(F)(F)F)ccc3n2CCOCCO)n1 (configuration not stated) = > 100 µM
3) O=C(CCc1ccc(Oc2cc([N+](=O)[O-])cc([N+](=O)[O-])c2)cc1)N1CCCCCC1 = 11.6 µM
4) CCOC(=O)Cn1c(=O)n(Cc2ccco2)c(=O)c2ccc(C(=O)NC3CCCC3)cc21 = 63.7 µM
5) CCc1onc(C)c1C(=O)Nc1cc(C)ccc1OC = 16 µM
6) COc1cccc(NC(=O)CSc2nc(O)c(C)c(=O)n2-c2ccc(C)cc2)c1 = > 100 µM
7) CCc1ccccc1NC(=O)c1ccccc1N1C(=O)C2C3C=CC(C3)C2C1=O (configuration not stated) = 96.8 µM
8) N/C(CSc1ccc(Cl)cc1)=N\S(=O)(=O)c1ccc(Cl)cc1 = > 100 µM
9) CCC1=C(OC(=O)N(CC)CC)N2C(=O)OC(=NCC(=O)OC)[C@]2(C)[C@H]2C1=CC[C@H]1C(=O)N(CC)C(=O)[C@H]12 = > 100 µM
10) CC1(C)CN=C(Nc2ccc(F)c(Cl)c2)S1 = 18.9 µM
11) O=C(Nc1cccc(S(=O)(=O)N2CCCCC2)c1)c1ccc([N+](=O)[O-])o1 = > 100 µM
12) O=C(CSC1CN(C(c2ccccc2)c2ccccc2)C1)N/N=C/c1ccccc1 = 5.56 µM
13) Cn1c(=O)c2c(ncn2CC(COCc2ccccc2)OCc2ccccc2)n(C)c1=O (configuration not stated) = > 100 µM
14) Cc1cccc(C)c1Nc1nnc(SCC(=O)Nc2cc(S(=O)(=O)N3CCCCC3)ccc2Cl)s1 = > 100 µM
15) O=C(O)CCCC(=O)N1CCc2cc(S(=O)(=O)N3CCc4ccccc43)ccc21 = > 100 µM
16) COCCNC(=S)N(CCc1c(C)[nH]c2ccc(F)cc12)Cc1cccs1 = > 100 µM
17) O=C(c1ccc(-c2cccc(Cl)c2)o1)N1CCN(c2ccc([N+](=O)[O-])cc2)CC1 = > 100 µM
18) O=C1CCCN1CCCNC(=S)Nc1ccc(Cl)cc1Cl = > 100 µM
19) CC(CN1CCOCC1)OC(=O)c1ccc2c(c1)OCCO2 (configuration not stated) = > 100 µM
20) CNC(=O)Nc1ccccc1C(=O)NCc1ccccc1 = > 100 µM
21) CCN(CC)C(=O)C1CCCN(C(=O)Nc2ccc3nsnc3c2)C1 (configuration not stated) = > 100 µM
22) CCOC(=O)c1ccc2[nH]c(C)c(C)c2c1 = > 100 µM
23) C[C@@H](C(=O)Nc1cccnc1)n1c(=O)[nH]c2ccccc2c1=O = > 100 µM
24) COC(=O)C1=C(C)NC(C)=C(C(=O)OC)C1C(=O)OC(C)C(=O)c1ccccc1 (configuration not stated) = > 100 µM
25) O=C(O)c1ccc(C(=O)Nc2cccc3ccccc23)c(C(=O)O)c1 = 49.3 µM
26) COCc1cccc(-c2csc(C(C)(O)c3ccccc3)n2)c1 (configuration not stated) = > 100 µM
27) CCCCC1CCC(C(=O)NC2CCS(=O)(=O)C2)CC1 (configuration not stated) = > 100 µM
28) COC(=O)c1ccc(Cn2nnc3c(=O)[nH]c(C4CCCN(S(=O)(=O)c5cccc(Cl)c5)C4)nc32)cc1 (configuration not stated) = > 100 µM
29) Cc1ccc(NNS(=O)(=O)c2ccc(C)cc2)cc1 = > 100 µM
30) O=C(NNC(=O)C1CCN(c2ncccn2)CC1)c1ccc(F)cc1 = > 100 µM
31) O=[N+]([O-])c1ccc(Nc2nc(NC3CCCCC3)nc(N3CCCC3)n2)cc1 = > 100 µM
32) CCO[C@@H]1OC(C(=O)NCc2ccccc2)=C[C@H](c2ccc(Br)cc2)[C@H]1CCCO = 22.1 µM
33) C=C(C)COc1ccc(-c2[nH]ncc2-c2ccccc2)c(O)c1 = > 100 µM
34) COc1ccc2c(c1)N(C)/C(=C1/SC(=NCc3ccccc3)N(c3ccccc3)C1=O)S2 = > 100 µM
35) C=CCOc1ccc(C2/C(=C(\O)c3c(C)[nH]c(C(=O)OC)c3C)C(=O)C(=O)N2CCN(C)C)cc1 (configuration not stated) = > 100 µM
36) CC(C)(C)N(NC(=O)Nc1ccc(Cl)cc1)C(=O)c1ccccc1 = > 100 µM
37) O=C(NCCN1CCOCC1)c1cc(-c2ccc(F)cc2)on1 = > 100 µM
38) Cc1[nH]n(-c2ccccc2)c(=S)c1C=Nc1cccc([N+](=O)[O-])c1 = > 100 µM
39) N=C1C(=O)OCC1c1cc(Cl)ccc1NC(=O)Nc1ccccc1 (configuration not stated) = 90.5 µM
40) Cc1cccc(NC(=O)c2ccc(OCc3c(C)noc3C)cc2)c1 = 17.8 µM
41) CCC1=C(OC(=O)N(CC)CC)N2C(=O)OC(=NCC3CC3)[C@]2(Cc2ccccc2)[C@H]2C1=CC[C@H]1C(=O)N(C)C(=O)[C@H]12 = > 100 µM
42) Cc1ccccc1Nc1cc(=O)oc2ccccc12 = > 100 µM

----------
# STUDY_TARGET: Neuropilin-1 (Homo sapiens) (UniProt O14786)
# PROCEDURE_DETAILS: NRP-1 b1b2 CendR peptide binding inhibitors, dose response, biochemical, FP and AlphaScreen panel (AID 651650)
# MEASUREMENT_CONTEXT: NRP-1 b1b2 / RPARPAR peptide binding, FP or AlphaScreen; AlphaScreen, mean of runs
Calls of active or inactive are those of the source.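 How the source made its calls: active means mean IC50 below 20 µM in each of the two panels, so potent in both; inactive means the rest.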
MEASURE: IC50

1) O=C(O)c1ccccc1SCC(=O)N1CCCCC1 = > 100 µM (inactive)
2) Cc1ccccc1-n1ncc2c1CC(C)(C)CC2NC(=O)c1ccncc1 (configuration not stated) = > 100 µM (inactive)
3) C/C(=N\N=c1/sc2ccccc2n1C)c1ccccn1 = > 100 µM (inactive)
4) O=C(CSc1nc(O)c(Cc2ccccc2)c(=O)n1-c1ccccc1)N1CCOCC1 = > 100 µM (inactive)
5) CCC1CCCCN1C(=S)Nc1ccc(OC(F)F)cc1 (configuration not stated) = inactive
6) O=C1CCCN1CCCNC(=S)Nc1ccc(Cl)cc1Cl = > 100 µM (inactive)
7) O=c1oc(Nc2ccccc2F)nc2ccccc12 = > 100 µM (inactive)
8) COC/C=C/C1=CC2=CC(=O)C(C)(OC(=O)c3cnc4ccccc4n3)C(=O)C2=CN1Cc1ccc(OC)cc1 (configuration not stated) = inactive
9) O=C(CN1C2=NCCN2c2ccccc21)c1ccco1 = > 100 µM (inactive)
10) O=C(CSc1nc2ccccc2n1Cc1ccccc1Cl)N/N=C/c1ccccc1C(=O)O = inactive
11) CC(=O)NCCNc1nc(NC(C)C)nc2ccsc12 = > 100 µM (inactive)
12) O=C(/C=C/c1ccccc1)c1ccccn1 = > 100 µM (inactive)
